Target: human TPO-R (Homo sapiens, UniProt P40238)
Construct: transfected with full length human TPO-R; expressed in transfected cells; host or cells: murine Ba/F3 cells
Sequence (P40238 26-635): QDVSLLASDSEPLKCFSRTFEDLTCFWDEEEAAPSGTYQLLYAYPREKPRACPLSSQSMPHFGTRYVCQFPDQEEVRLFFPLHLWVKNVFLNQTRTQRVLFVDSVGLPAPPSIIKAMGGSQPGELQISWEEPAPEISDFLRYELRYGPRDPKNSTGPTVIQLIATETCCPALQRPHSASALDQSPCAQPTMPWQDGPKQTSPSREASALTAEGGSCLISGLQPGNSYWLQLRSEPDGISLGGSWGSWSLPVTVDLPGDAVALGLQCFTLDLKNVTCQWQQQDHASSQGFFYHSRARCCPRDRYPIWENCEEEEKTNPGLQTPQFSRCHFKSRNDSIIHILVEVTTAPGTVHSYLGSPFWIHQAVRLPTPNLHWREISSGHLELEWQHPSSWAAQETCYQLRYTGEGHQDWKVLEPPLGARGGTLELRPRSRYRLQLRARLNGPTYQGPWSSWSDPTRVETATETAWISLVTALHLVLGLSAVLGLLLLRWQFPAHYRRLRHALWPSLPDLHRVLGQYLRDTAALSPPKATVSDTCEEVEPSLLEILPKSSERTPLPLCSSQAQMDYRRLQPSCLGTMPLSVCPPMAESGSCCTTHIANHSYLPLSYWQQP
Assay: thrombopoietin dependent cell proliferation assay, TPO-R transfected Ba/F3 cells (MTT)
Type: cell-based
Details: Table 9; read-out: EC50 (nM) Prolif.
measure: EC50

# input EC50 for H-IEGPTLRQWLAARA-NH2 ?
# output ≤ 500 nM

----------
Target: TPO-R (Homo sapiens, UniProt P40238)
Construct: made in house
Assay: competition binding assay: MBP-TPO156 binding to immobilized TPO-R (ELISA)
Conditions: Table 9; read-out: IC50
measure: IC50

# input IC50 for H-IEGPTLRQWLAARA-NH2 ?
# output ≤ 500 nM

----------
Some sequences, each annotated with its measured IC50.
Target: TPO-R (Homo sapiens, UniProt P40238)
Construct: made in house
Assay: competition binding assay: MBP-TPO156 binding to immobilized TPO-R (ELISA)
Details: Table 3; free peptide; read-out: Affinity (IC50)
Where no end group is shown, it is not given here.

Some entries whose results are on file:
residue_codes: LAIEGPTLRQWLHGNGRDT [L A I E G P T L R Q W L H G N G R D T]
reported_measurement: ≤ 500 nM
--
residue_codes: SIEGPTLREWLTSRTPHS [S I E G P T L R E W L T S R T P H S]
reported_measurement: ≤ 500 nM
--
residue_codes: TIKGPTLRQWLKSREHTS [T I K G P T L R Q W L K S R E H T S]
reported_measurement: ≤ 500 nM
--
residue_codes: GPTLRQWL [G P T L R Q W L]
reported_measurement: > 200000 nM

The record that follows has no IC50 shown yet.
# input TPO-R (Homo sapiens, UniProt P40238) / IC50 / GNADGPTLRQWLEGRRPKN [G N A D G P T L R Q W L E G R R P K N] : value?
# output ≤ 500 nM

Origin of the recorded values: patent US7091311B2
